Target protein (sequence): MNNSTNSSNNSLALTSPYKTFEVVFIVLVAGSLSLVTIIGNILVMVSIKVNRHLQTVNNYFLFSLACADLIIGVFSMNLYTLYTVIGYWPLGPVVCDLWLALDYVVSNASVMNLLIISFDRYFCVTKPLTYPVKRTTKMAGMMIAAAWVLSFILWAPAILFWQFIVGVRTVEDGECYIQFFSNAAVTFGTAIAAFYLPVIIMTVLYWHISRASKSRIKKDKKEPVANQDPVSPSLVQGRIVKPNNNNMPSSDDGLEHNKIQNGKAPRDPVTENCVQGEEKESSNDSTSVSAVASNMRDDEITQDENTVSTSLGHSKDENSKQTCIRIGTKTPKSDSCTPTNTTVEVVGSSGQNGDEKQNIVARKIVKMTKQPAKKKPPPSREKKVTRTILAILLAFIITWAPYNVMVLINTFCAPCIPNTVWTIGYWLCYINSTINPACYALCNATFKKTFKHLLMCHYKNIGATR
OUTCOME MEASURE: Ki (nM)

>>> test_value("CC(=C1CCN(C2CCN(C(=O)c3ccc(F)c4ccccc34)CC2)CC1)c1ccc([S+]([O-])C(C)C)cc1 (stereo in doubt; 13)")
2.7

[A] CC(=C1CCN(C2CCN(C(=O)c3cccc(C)c3N)CC2)CC1)c1ccc([S+]([O-])C(C)C)cc1 (stereo in doubt; 14)
[B] CC(C)S(=O)(=O)c1ccc(CC2CCN(C3CCN(C(=O)c4ccc(F)c5ccccc45)CC3)CC2)cc1
[C] CC(=C1CCN(C2CCN(C(=O)c3ccc(F)c4ccccc34)CC2)CC1)c1ccc([S+]([O-])C(C)C)cc1 (single isomer, unassigned; (+))
[D] CC(=C1CCN(C2CCN(C(=O)c3cccc(C)c3N)CC2)CC1)c1ccc([S+]([O-])C(C)C)cc1 (single isomer, unassigned; (-))
[E] CC(=C1CCN(C2CCN(C(=O)c3cccc(C)c3N)CC2)CC1)c1ccc([S+]([O-])C(C)C)cc1 (single isomer, unassigned; (+))
Q. hey, can you rank those molecules up there by Ki? biggest number first please Please, when replying, give the labels in the order that was requested.
A. B, D, A, C, E
(B: 221 nM, D: 12 nM, A: 6.6 nM, C: 1.3 nM, E: 0.89 nM)

====

- PROCEDURE DETAILS: Area under curve (high throughput single measurement) after peroral administration (10 mg/kg, 0-6 hr) in rat was determined
- EXPERIMENTAL SETUP: in vivo, po
OUTCOME MEASURE: AUC at 6 h (ng·h/mL)
Field format: number, assumed ng·h/mL, no unit text.

Q. Reported AUC at 6 h for Cc1cccc(C(=O)N2CCC(N3CCC(Cc4ccc(S(=O)(=O)c5cccc(Cl)c5)cc4)CC3)CC2)c1N [SCH-211803] : what is it?
A. 908

====

Activity values by entry
- Tested on: Rattus norvegicus
- PROCEDURE DETAILS: ACh released compared with baseline (100%) in rat striatum after peroral administration (0-2 h,10 mg/kg, 20% HPbetaCD) using microdialysis assay
- Format: functional
Field format: number, assumed %, no unit text.

Worked cases, answers included:
>>> test_value("COc1ccc(S(=O)(=O)c2ccc(C3(C4CCN(C5CCN(C(=O)c6ccc(F)c7ccccc67)CC5)CC4)OCCO3)cc2)cc1")
180
>>> test_value("CC(=C1CCN(C2CCN(C(=O)c3ccc(F)c4ccccc34)CC2)CC1)c1ccc([S+]([O-])C(C)C)cc1 (single isomer, unassigned; (+))")
179

Now consider the entry below.
Q. Reported Activity for CC(=C1CCN(C2CCN(C(=O)c3cccc(C)c3N)CC2)CC1)c1ccc([S+]([O-])C(C)C)cc1 (single isomer, unassigned; (+)) : what is it?
A. 225
